STUDY_SYSTEM: Neuronal acetylcholine receptor subunit alpha-7 (Homo sapiens, UniProt P36544)
Sequence (P36544 whole entry): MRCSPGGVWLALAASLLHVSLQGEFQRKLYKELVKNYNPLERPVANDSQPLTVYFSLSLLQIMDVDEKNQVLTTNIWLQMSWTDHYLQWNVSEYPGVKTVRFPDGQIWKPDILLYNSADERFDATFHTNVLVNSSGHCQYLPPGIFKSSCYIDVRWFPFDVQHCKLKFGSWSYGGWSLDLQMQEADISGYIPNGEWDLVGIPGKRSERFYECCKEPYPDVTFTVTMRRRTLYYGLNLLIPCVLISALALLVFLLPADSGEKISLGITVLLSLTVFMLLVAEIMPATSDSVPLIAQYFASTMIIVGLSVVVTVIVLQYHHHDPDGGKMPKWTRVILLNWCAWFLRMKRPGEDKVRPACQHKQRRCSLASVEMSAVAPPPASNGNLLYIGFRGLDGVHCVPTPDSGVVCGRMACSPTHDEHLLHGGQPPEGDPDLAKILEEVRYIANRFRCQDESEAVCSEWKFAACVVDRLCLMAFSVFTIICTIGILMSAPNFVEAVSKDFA
ASSAY_OVERVIEW: Positive allosteric modulation activity at alpha7 nAChR (unknown origin) expressed in Xenopus laevis oocytes assessed as increase in acetylcholine-induced channel current at 10 uM at -90 mV holding potential by two-electrode voltage clamp method relative control
Assay type: cell-based
For each entry below, report its Emax value.
Provide the measurement as a number trailed by its unit.

IN: Which Emax is listed for `COc1ccc(-c2ccc3ncn(-c4c(C)cccc4Cl)c(=O)c3c2)cc1` ?
OUT: 65%

IN: Suppose we examine the molecule `Cc1cccc(Cl)c1-n1cnc2nc(SCc3ccccc3)sc2c1=O` ; what Emax value has been reported?
OUT: 1630%

IN: Fill in the blank: the reported Emax of `Cc1cccc(Cl)c1-n1cnc2ccc(-c3ccc(F)cc3)cc2c1=O` is ____.
OUT: 76%

IN: // returns reported Emax for input `Cc1ccc(Nc2nc3ncn(-c4c(C)cccc4Cl)c(=O)c3s2)cc1`
OUT: 1620%
